assay: log P determination by HPLC on reversed-phase column (C 18), EEC Directive 79/831 Annex V.A8; format: physicochemical; details: HPLC on reversed-phase column (C 18)
ASSAY_METRIC: LogP

Cn1cc(C(=O)N(Cc2c(Cl)cc(Cl)cc2Cl)C2CC2)c(C(F)F)n1	3.46
Cc1nn(C)c(F)c1C(=O)N(C1CC1)C(C#N)c1ccc(Cl)cc1Cl (stereo not drawn)	3.15
Cc1nn(C)c(F)c1C(=O)N(Cc1ccc(Cl)cc1Cl)C1CC1	3.04

Data provenance is patent US8088927B2.
